Test system: P12-Ichikawa
Test: AUC of viability dose-response curve (% viability x log10 dose units); higher = less sensitive
Details: HPLM + 10% dialyzed FBS; 48 h

{"Molecule": "COC(=O)[C@@H]1CC2=CC(=O)CC[C@]2(C)[C@@]23O[C@@H]2C[C@@]2(C)[C@@H](CC[C@@]24CCC(=O)O4)[C@H]13", "AUC of viability dose-response curve": 458}
{"Molecule": "O=C(Nc1cccc2c(=O)cc(-c3nnn[nH]3)oc12)c1ccc(OCCCCc2ccccc2)cc1", "AUC of viability dose-response curve": 424}
{"Molecule": "Cc1n[nH]c(C)c1Cc1sc2c(c1C(=O)N1C[C@H](O)CO1)c(=O)n(C)c(=O)n2CC(C)C", "AUC of viability dose-response curve": 416}
{"Molecule": "C/C(=C\\C(=O)Nc1ccccc1C(=O)O)c1ccc2ccccc2c1", "AUC of viability dose-response curve": 461}

###

Consider the following molecules and their measured cell viability readings.
System: NOMO1
Experiment: cell viability relative to DMSO control; higher = less cytotoxic
Details: HPLM + 10% dialyzed FBS; 48 h; 46.1 µM

{"Molecule": "O=C(O)c1nn(Cc2ccc(Cl)cc2Cl)c2ccccc12", "cell viability [%]": 69.9}
{"Molecule": "CN1CCN(c2cc(C(=O)Nc3ccc4c(c3)-c3c(c(C(N)=O)nn3-c3ccc(F)cc3)CC4)c(Cl)cn2)CC1", "cell viability [%]": 1.35}
{"Molecule": "CCN(CC)CCNC(=O)c1ccc2nc(-c3ccccc3)c(-c3ccc(CN4CCC(n5c(=O)[nH]c6ccccc65)CC4)cc3)nc2c1", "cell viability [%]": 4.57}
{"Molecule": "NC(=O)c1c(OCc2c(F)cc(Br)cc2F)nsc1NC(=O)NCCCCN1CCCC1", "cell viability [%]": 21.5}
{"Molecule": "Cc1nc(C(=O)NCC(=O)O)c(O)c2ccc(Oc3ccccc3)cc12", "cell viability [%]": 107}
{"Molecule": "COc1ccccc1OCC(O)CN1CCN(CC(=O)Nc2c(C)cccc2C)CC1 (stereo not drawn)", "cell viability [%]": 137}
{"Molecule": "CNCCN(C)Cc1c[nH]nc1-c1ccc(O[C@H]2C[C@H](OCCC3CCOCC3)C2)cc1", "cell viability [%]": 121}
{"Molecule": "O=C(Nc1ccncc1)C(=O)c1cn(Cc2ccc(Cl)cc2)c2ccccc12", "cell viability [%]": 61.7}

###

Consider the following compounds and their measured cell viability readings.
System: P12-Ichikawa
Test: cell viability relative to DMSO control; higher = less cytotoxic
Conditions: HPLM + 10% dialyzed FBS; 48 h; 0.0632 µM
Outcome measure: cell viability (%)

{"Compound": "Clc1ccc(C(Cn2ccnc2)OCc2ccc(Sc3ccccc3)cc2)c(Cl)c1 (stereo unspecified)", "Outcome measure": "cell viability", "Reported value": 117}
{"Compound": "CC(=O)O[C@@]12CO[C@@H]1C[C@H](O)[C@]3(C)[C@@H]2[C@H](OC(=O)C4=CC=CC=C4)[C@]5(O)C[C@H](O)/C(=C(/[C@@H](O)C3=O)C5(C)C)C", "Outcome measure": "cell viability", "Reported value": 114}
{"Compound": "Oc1ccc(-c2nc(-c3ccncc3)c(-c3ccc(F)cc3)[nH]2)cc1", "Outcome measure": "cell viability", "Reported value": 124}
{"Compound": "COCCNCCCn1c(C(=O)CF)c(-c2ccc(C)cc2)c2c(N)ncnc21", "Outcome measure": "cell viability", "Reported value": 111}
{"Compound": "Cc1ccc([S+](=O)([O-])NC(=O)NN2CC3CCCC3C2)cc1 (stereo unspecified)", "Outcome measure": "cell viability", "Reported value": 112}
{"Compound": "COc1ccccc1OCC(O)CN1CCN(CC(=O)Nc2c(C)cccc2C)CC1 (stereo unspecified)", "Outcome measure": "cell viability", "Reported value": 130}
{"Compound": "Oc1ccc(C2CNCCc3c2cc(O)c(O)c3Cl)cc1 (stereo unspecified)", "Outcome measure": "cell viability", "Reported value": 92.7}
{"Compound": "NC(=O)Cc1cccc(C(=O)c2ccccc2)c1N", "Outcome measure": "cell viability", "Reported value": 110}
{"Compound": "CN1CCC(=C2c3ccccc3CCc3sccc32)CC1", "Outcome measure": "cell viability", "Reported value": 111}
{"Compound": "O=C(N[C@H]1CN2CCC1CC2)c1ccc(Cl)cc1", "Outcome measure": "cell viability", "Reported value": 110}
{"Compound": "CCCCC(F)(F)[C@@]1(O)CC[C@H]2[C@@H](CC(=O)[C@@H]2CCCCCCC(=O)O)O1", "Outcome measure": "cell viability", "Reported value": 122}
{"Compound": "O=C1N\\N=C(\\C[C@@H]2CCN(C2)C(=O)C3CC3)N1C4=CC=C(C=C4)C5=CC=C6OC=CC6=C5", "Outcome measure": "cell viability", "Reported value": 91.9}
{"Compound": "CCCCc1oc2ccccc2c1C(=O)c1cc(I)c(OCCN(CC)CC)c(I)c1", "Outcome measure": "cell viability", "Reported value": 115}
{"Compound": "Cc1nc(N)sc1-c1ccnc(Nc2ccc(N3CCOCC3)cc2)n1", "Outcome measure": "cell viability", "Reported value": 112}
{"Compound": "CC(C)C1=N[N](C\\2=C1C(=O)N\\C(=N2)CC3=CC=C(OCCO)C=C3)C4=C(Cl)C=CC=C4Cl", "Outcome measure": "cell viability", "Reported value": 107}
{"Compound": "COc1cc2nc(N3CCN(C(=O)c4ccco4)CC3)nc(N)c2cc1OC", "Outcome measure": "cell viability", "Reported value": 99}
